Reported values of ratio of amounts bound vs CE115HA000 for individual entries
- assayed.target: T1, CD3ε homodimer protein (human, UniProt P07766 23-126, limits assumed, sulfo-tag or biotin label in some ECL assays)
- T1 construct: also called human CD3ε homodimer protein; CD3 (CD3ε)
- T1 sequence (P07766 23-126 limits assumed): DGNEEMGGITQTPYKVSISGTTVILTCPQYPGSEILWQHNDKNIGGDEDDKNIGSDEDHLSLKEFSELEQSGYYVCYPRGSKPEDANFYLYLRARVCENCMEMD
- assay.method.text: SPR, CD3ε homodimer on chip;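 further: biacore SPR with antibody variants flowed as analyte over amine-coupled CD3ε homodimer on a CM chip, bound amount of each single-residue H chain variant over that of parent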
Simply state the number, no unit and no words.

Examples with answers:
- CE115HA000 H35I (antibody, name in Kabat numbering, V domains shown) VH: QVQLVESGGGVVQPGRSLRLSCAASGFTFSNAWMIWVRQAPGKGLEWVAQIKAKSNNYATYYAESVKGRFTISRDDSKNSLYLQMNSLKTEDTAVYYCRYVHYGAYYGVDAWGQGTTVTVSS VL: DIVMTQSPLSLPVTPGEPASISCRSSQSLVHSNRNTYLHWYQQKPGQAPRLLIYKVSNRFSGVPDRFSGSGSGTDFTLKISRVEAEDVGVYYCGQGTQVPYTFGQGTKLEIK: 0.12
- CE115HA000 N54D (antibody, name in Kabat numbering, V domains shown) VH: QVQLVESGGGVVQPGRSLRLSCAASGFTFSNAWMHWVRQAPGKGLEWVAQIKAKSNDYATYYAESVKGRFTISRDDSKNSLYLQMNSLKTEDTAVYYCRYVHYGAYYGVDAWGQGTTVTVSS VL: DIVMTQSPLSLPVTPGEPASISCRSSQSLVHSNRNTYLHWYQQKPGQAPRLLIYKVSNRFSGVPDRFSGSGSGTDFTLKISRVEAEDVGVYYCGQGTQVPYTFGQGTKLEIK: 0.62
- CE115HA000 K52R (antibody, name in Kabat numbering, V domains shown) VH: QVQLVESGGGVVQPGRSLRLSCAASGFTFSNAWMHWVRQAPGKGLEWVAQIRAKSNNYATYYAESVKGRFTISRDDSKNSLYLQMNSLKTEDTAVYYCRYVHYGAYYGVDAWGQGTTVTVSS VL: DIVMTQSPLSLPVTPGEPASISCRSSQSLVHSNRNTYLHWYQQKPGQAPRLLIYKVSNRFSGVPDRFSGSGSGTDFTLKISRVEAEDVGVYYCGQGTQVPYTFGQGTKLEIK: 0.92
- CE115HA000 K64S (antibody, name in Kabat numbering, V domains shown) VH: QVQLVESGGGVVQPGRSLRLSCAASGFTFSNAWMHWVRQAPGKGLEWVAQIKAKSNNYATYYAESVSGRFTISRDDSKNSLYLQMNSLKTEDTAVYYCRYVHYGAYYGVDAWGQGTTVTVSS VL: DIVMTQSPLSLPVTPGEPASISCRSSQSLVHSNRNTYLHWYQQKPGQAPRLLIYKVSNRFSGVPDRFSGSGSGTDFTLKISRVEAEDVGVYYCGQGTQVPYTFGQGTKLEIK: 0.84
- CE115HA000 Y100aS (antibody, name in Kabat numbering, V domains shown) VH: QVQLVESGGGVVQPGRSLRLSCAASGFTFSNAWMHWVRQAPGKGLEWVAQIKAKSNNYATYYAESVKGRFTISRDDSKNSLYLQMNSLKTEDTAVYYCRYVHYGAYSGVDAWGQGTTVTVSS VL: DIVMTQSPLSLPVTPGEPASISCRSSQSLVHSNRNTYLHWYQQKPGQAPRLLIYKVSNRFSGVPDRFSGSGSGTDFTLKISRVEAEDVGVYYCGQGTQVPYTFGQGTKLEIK: 0.64
- CE115HA000 A56Q (antibody, name in Kabat numbering, V domains shown) VH: QVQLVESGGGVVQPGRSLRLSCAASGFTFSNAWMHWVRQAPGKGLEWVAQIKAKSNNYQTYYAESVKGRFTISRDDSKNSLYLQMNSLKTEDTAVYYCRYVHYGAYYGVDAWGQGTTVTVSS VL: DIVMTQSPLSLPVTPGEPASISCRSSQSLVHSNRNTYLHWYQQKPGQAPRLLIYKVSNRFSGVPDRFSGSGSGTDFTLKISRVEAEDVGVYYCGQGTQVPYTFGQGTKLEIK: 0.76

May I ask what ratio of amounts bound vs CE115HA000 has been recorded for CE115HA000 G98Y (antibody, name in Kabat numbering, V domains shown) VH: QVQLVESGGGVVQPGRSLRLSCAASGFTFSNAWMHWVRQAPGKGLEWVAQIKAKSNNYATYYAESVKGRFTISRDDSKNSLYLQMNSLKTEDTAVYYCRYVHYYAYYGVDAWGQGTTVTVSS VL: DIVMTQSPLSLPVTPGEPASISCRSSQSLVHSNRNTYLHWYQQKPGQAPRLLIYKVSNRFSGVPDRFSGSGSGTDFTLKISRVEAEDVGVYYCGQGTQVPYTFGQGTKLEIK ?
2.22

Also CE115HA000 A56K (antibody, name in Kabat numbering, V domains shown) VH: QVQLVESGGGVVQPGRSLRLSCAASGFTFSNAWMHWVRQAPGKGLEWVAQIKAKSNNYKTYYAESVKGRFTISRDDSKNSLYLQMNSLKTEDTAVYYCRYVHYGAYYGVDAWGQGTTVTVSS VL: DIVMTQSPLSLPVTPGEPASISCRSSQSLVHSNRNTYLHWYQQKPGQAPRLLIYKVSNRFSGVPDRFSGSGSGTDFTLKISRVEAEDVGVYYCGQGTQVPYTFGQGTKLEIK , if possible.
1.35

Lookup CE115HA000 Y100aQ (antibody, name in Kabat numbering, V domains shown) VH: QVQLVESGGGVVQPGRSLRLSCAASGFTFSNAWMHWVRQAPGKGLEWVAQIKAKSNNYATYYAESVKGRFTISRDDSKNSLYLQMNSLKTEDTAVYYCRYVHYGAYQGVDAWGQGTTVTVSS VL: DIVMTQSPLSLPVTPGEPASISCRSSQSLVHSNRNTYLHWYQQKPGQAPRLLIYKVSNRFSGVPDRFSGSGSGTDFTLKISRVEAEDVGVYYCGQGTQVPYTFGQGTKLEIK
0.56

Try CE115HA000 S62P (antibody, name in Kabat numbering, V domains shown) VH: QVQLVESGGGVVQPGRSLRLSCAASGFTFSNAWMHWVRQAPGKGLEWVAQIKAKSNNYATYYAEPVKGRFTISRDDSKNSLYLQMNSLKTEDTAVYYCRYVHYGAYYGVDAWGQGTTVTVSS VL: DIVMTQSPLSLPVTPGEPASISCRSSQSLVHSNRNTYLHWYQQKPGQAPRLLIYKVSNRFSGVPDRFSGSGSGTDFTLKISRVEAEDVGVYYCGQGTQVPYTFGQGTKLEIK next.
1
